Source listed as PubChem BioAssay.

Tested on: Human papillomavirus type 1a E7 protein (residues 1-88)
ASSAY_PROTOCOL: HPV1a E7 small-molecule binders, primary screen, biochemical, small-molecule microarray, residues 1-88, 635 nm (AID 1129)
CONDITION_PARAMETERS: small-molecule microarray binding, fluorescence 635 nm; higher = more signal
Catalogue of compounds with associated composite z-score
Please give the numeric answer without any surrounding text.

// solved cases for composite z-score follow
| CHEMICAL_SMILES | composite z-score |
| --- | --- |
| COCCOC(=O)N1C(=O)[C@@]2(c3cc(C#CCNC(N)=O)ccc31)[C@H](C(N)=O)[C@H]1C(=O)O[C@H](c3ccccc3)[C@H](c3ccccc3)N1[C@@H]2c1ccc(OCCO)cc1 | 1.03 |
| O=C1O[C@H](c2ccccc2)[C@H](c2ccccc2)N2[C@H]1[C@@H](C(=O)NC[C@H](O)c1ccccc1)[C@]1(C(=O)Nc3ccccc31)[C@H]2c1ccccc1OCCO | 1.22 |
| CC(C)(C)OC(=O)CC[C@]1(C(=O)N2CCCCC2)N=C(c2ccc(OCCCO)cc2)O[C@H]1c1ccccc1CN=[N+]=[N-] | 1.21 |
| COc1ccccc1CN1C(=O)c2ccccc2[C@@]2(Cc3ccccc3N(C3CC3)C2=O)[C@@H]1c1ccc(CO)cc1 | -1.12 |
| COCCOC(=O)N1C(=O)[C@@]2(c3cc(C#CCNC(N)=O)ccc31)[C@H](C(=O)N1CCCCCCC1)[C@H]1C(=O)O[C@H](c3ccccc3)[C@H](c3ccccc3)N1[C@@H]2c1ccc(OCCO)cc1 | 0.492 |

Read the next record carefully.
input: # return recorded composite z-score for input CO[C@H]1O[C@H](CO)[C@@H](OC(=O)c2ccc(Br)cc2)[C@@H]2OC(=O)[C@H](Cc3cccc(Br)c3)C/C=C/C[C@@H](Cc3cccc(Br)c3)C(=O)O[C@@H]12
output: 1.05

###

ASSAY_PROTOCOL: hepatitis C replication reporter changes, two-sided – Huh7 cells, luciferase reporter, HCV replication inhibitor project, primary screen (AID 1109);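 also: huh7 hepatoma cells harbouring a luciferase neomycin HCV replicon reporter; luciferase luminescence as measure of HCV replicon replication; test concentration not given here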
CONDITION_PARAMETERS: Huh7 HCV replicon luciferase reporter, 48 h; higher = more signal
MEASURED_PROPERTY: z-score

Example entries and their recorded answers appear below.
| MOLECULE | OBSERVED_VALUE |
| --- | --- |
| O=C1C[C@@](C(=O)O)(c2ccc([N+](=O)[O-])cc2)[C@@H](c2ccc(CO)cc2)N1CC12CC3CC(CC(C3)C1)C2 | -1.94 |
| COCCOC(=O)N1C(=O)[C@@]2(c3cc(C#CC4(O)CCCCCC4)ccc31)[C@H](C(=O)N1CCN(c3ncccn3)CC1)[C@H]1C(=O)O[C@H](c3ccccc3)[C@H](c3ccccc3)N1[C@@H]2c1ccc(O)cc1 | -1.69 |
| CCCCC(CC)C(O)C1C=CC2C(=O)NC(=O)C2N1Nc1ccccn1 (stereo not given) | -0.201 |
| C=CCOC(=O)[C@@H]1[C@H]2C(=O)O[C@H](c3ccccc3)[C@H](c3ccccc3)N2[C@H](c2ccc(OCCOC(=O)[C@@H]3C[C@@H]4C(=O)N[C@@H](CCCCNC(C)=O)C(=O)N4[C@@H]3c3ccc(O)cc3)cc2)[C@@]12C(=O)Nc1ccc(I)cc12 | -0.66 |
| CCOC(=O)C[C@H]1[C@H](OC(=O)Cc2ccc3c(c2)OCO3)[C@@H](NC(=O)c2ccccc2)c2cc(OCCCO)ccc2N1C(=O)c1ccccc1 | -0.183 |

input: Complete the entry with z-score for C[C@]12C(=O)N(CCCCCO)[C@@H]3C(=O)N(c4ccc(Cl)cc4)CC=CC31O[C@@H]1/C=C\CCCOC(=O)C12 (stereo not given in full)
output: -0.381

input: Kindly indicate its recorded z-score. Item: COc1ccc([Si](C)(C)[C@@H]2[C@@H](CCO)O[C@]3(C(=O)N(Cc4ccccc4)c4ccc(N5C(=O)COc6ccccc65)cc43)[C@H]2C)cc1
output: -4.11

input: Hello, please tell me recorded z-score for this one: C=CCC(OC(C)=O)[C@@H]1[C@@H](N(Cc2cc3ccccc3o2)C(=O)Cc2ccc(OC)cc2)c2cc(OCCCO)ccc2N1C(=O)c1ccc(-c2ccccc2)cc1 (stereo not given in full)
output: -0.71

input: Return z-score for the following molecule: COC(=O)c1c(CC[C@@H](CO)NC(=O)N[C@@H](C)Cn2cc(C3(O)CCCC3)nn2)oc(C(C)=O)c1C(=O)OC
output: 0.884

###

ASSAY_PROTOCOL: JC-1 mitochondrial signal, unstimulated MM1S myeloma – cell-based, JC-1 fluorescence, 24 h, 100 nL compound, profiling panel (AID 1170); also: test concentration not given here
CONDITION_PARAMETERS: MM1S mitochondrial potential, higher = more signal
Where z-score equals or exceeds -0.5, the correct label is yes; where it does not, the label is no.

For orientation, consider the following solved cases.
| COMPOUND | ASSIGNED_LABEL |
| --- | --- |
| NC(=O)NCC#Cc1ccc2c(c1)[C@]1(C(=O)N2)[C@H](c2ccc(O)cc2)N2[C@H](c3ccccc3)[C@H](c3ccccc3)OC(=O)[C@H]2[C@@H]1C(=O)NC[C@H](O)c1ccccc1 | yes |
| COC(=O)[C@@]1(Cc2ccccc2)[C@H]2c3cc(C(=O)N4CCCC4)n(Cc4ccc(OC(F)(F)F)cc4)c3C[C@H]2CN1C(=O)c1ccccc1 | no |

input: Can C=CCC(OC(C)=O)[C@@H]1[C@@H](N(Cc2cc3ccccc3o2)C(=O)Cc2ccc(OC)cc2)c2cc(OCCCO)ccc2N1C(=O)c1ccc(-c2ccccc2)cc1 (stereo partly specified) be said to have z-score at or above -0.5?
output: yes

input: Item COc1ccc([Si](C)(C)[C@@H]2[C@@H](CCO)O[C@]3(C(=O)N(Cc4ccc(N5C(=O)c6ccccc6Oc6ccccc65)cc4)c4ccccc43)[C@H]2C)cc1 with z-score of -0.5 or above?
output: no

input: Identify whether the reported z-score of the following compound is -0.5 or greater: C=C[C@@H](O)[C@H]1CC(c2ccccc2)=NO1
output: no

###

ASSAY_PROTOCOL: probe aWnt5a binding to arrayed compounds – biochemical, biotinylated probe, 635/667 nm fluorescence, primary screen (AID 1113);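 also: score merges 667 nm fluorescence intensity with signal-to-noise per printed feature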
CONDITION_PARAMETERS: small-molecule microarray, higher = more signal
Entries and their measured composite z-score follow.

Take a look at these entries with their results.
| COMPOUND | OBSERVED_VALUE |
| --- | --- |
| Cc1ccc(S[C@]2(C(=O)NCC(C)C)CC(=O)N(C3CCCCC3)[C@@H]2c2ccc(CO)cc2I)cc1 | 0.02 |
| C=CCC(OC(C)=O)[C@@H]1[C@@H](N(Cc2ccc(-c3cccc(C(F)(F)F)c3)o2)C(=O)c2cccc3ccccc23)c2cc(OCCCO)ccc2N1C(=O)c1ccc(-c2ccccc2)cc1 (some centres not stated) | -0.22 |
| COCCCNC(=O)[C@@H]1c2ccccc2C(=O)N(c2ccc(C)cn2)[C@H]1c1ccc(CO)cc1 | -0.363 |

input: Consider the compound CC(C)CCC[C@@H](C)[C@H]1CC[C@@]2(C)C3=C(CC[C@]12C)[C@@]1(C)CC[C@H](OC(=O)c2ccc(N)cc2)C(C)(C)C1CC3 (some centres not stated) and give its recorded composite z-score.
output: -0.0545

input: Identify measured composite z-score corresponding to C=CCC(OC(C)=O)[C@@H]1[C@@H](N(Cc2cc3ccccc3o2)C(=O)Cc2ccc(OC)cc2)c2cc(OCCCO)ccc2N1C(=O)c1ccc(-c2ccccc2)cc1 (some centres not stated)
output: -0.0767

input: Quote composite z-score reported for COc1cc(NN2C(C(O)c3ccc(I)cc3)C=CC3C(=O)N(C)C(=O)C32)cc(OC)c1OC (configuration not stated) please.
output: 0.0077

input: # return recorded composite z-score for entry COC(=O)[C@]1(Cc2ccccc2CN=[N+]=[N-])N=C(c2ccc(OCCCO)cc2)O[C@@H]1c1ccccc1
output: -0.228

###

# composite z-score listing for each entry below
SYSTEM_NAME: Calmodulin-1 (Homo sapiens)
ASSAY_PROTOCOL: small molecules binding calmodulin-1 with EGTA – biochemical, small-molecule microarray, Cy5-labelled CALM1, profiling panel (AID 1111);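 also: labelled calmodulin applied in Tris saline Tween buffer holding calcium plus EGTA and DTT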
CONDITION_PARAMETERS: Cy5-CALM1 binding fluorescence, higher = more signal
// return just the number, without any unit appended

Field: example entries. Status: answers known.
| CHEMICAL_SMILES | MEASURED_PROPERTY | OBSERVED_VALUE |
| --- | --- | --- |
| [N-]=[N+]=NCc1ccccc1C[C@]1(C(=O)NCCN2CCOCC2)N=C(c2ccc(OCCCO)cc2)O[C@H]1c1ccccc1 | composite z-score | 0.835 |
| C[N+](C)(C)CCCC[C@@H]1NC(=O)[C@H]2C[C@@H](C(=O)NCCCCCCN)[C@@H](c3cccc(OCCO)c3)N2C1=O | composite z-score | 1.11 |
| C=CCOC(=O)[C@@H]1[C@H]2C(=O)O[C@H](c3ccccc3)[C@H](c3ccccc3)N2[C@H](c2ccc(OCCOC(=O)[C@@H]3C[C@@H]4C(=O)N[C@@H](CCCCNC(C)=O)C(=O)N4[C@@H]3c3ccc(O)cc3)cc2)[C@@]12C(=O)Nc1ccc(I)cc12 | composite z-score | 0.743 |
| C=C(/C(=C/C[C@@H](OC(=O)c1ccncc1)c1ccccc1OCCO)c1cnc2ccccc2c1)C(C)C | composite z-score | 0.273 |
| COc1ccc(C(=O)Nc2ccc(CN3C(=O)[C@@]4(O[C@@H](CC(=O)N5Cc6ccccc6C[C@H]5CO)[C@H]([Si](C)(C)c5ccc(OC)cc5)[C@H]4C)c4ccccc43)cc2)cc1 | composite z-score | 0.0063 |

input: For the molecule COC(=O)[C@@]1(Cc2ccccc2)[C@H]2c3cc(C(=O)N4CCCC4)n(CCO)c3C[C@H]2CN1C(=O)c1ccccc1 , report composite z-score.
output: 2.71
